# Read-out: Transforming growth factor beta 1 (TGFb1), TGFB1 (gene 7040)
# Protocol Description: BSK_KF3CT_TGFb1: BioMAP Diversity Plus: KF3CT Assay for Transforming growth factor beta 1 (TGFb1) Biomarker Activity (AID 2283072)
# Setup Conditions: primary human keratinocytes with fibroblasts; actives raise or lower the signal
Active and inactive are the calls of the source. Rule for the calls: active = hit-call score of the fitted dose curve at least 0.9, where 1 is the maximum; inactive = score below 0.9.
Allowed answers: active, inactive

Compound	Answer Label
Cc1ccc([N+](=O)[O-])cc1N	inactive

What did the test return for C=CC(=O)OCC(C)OCC(C)OCC(C)OC(=O)C=C (configuration not stated) ?
inactive

Item: O=C1CCCCCCCCCCCN1
inactive

Item: C=C(C)C(=O)OCCCCCCCCCCCC
inactive

Item: O=C(Cl)c1c(Cl)c(Cl)c(C(=O)Cl)c(Cl)c1Cl
inactive

Item: Fc1ccc(Br)cc1
inactive

Item: CC(c1cc(C(C)(C)C)cc(C(C)(C)C)c1O)c1cc(C(C)(C)C)cc(C(C)(C)C)c1O
inactive

Item: CCCCCCCCC(CO)CCCCCC (configuration not stated)
inactive

Item: c1ccc2c(c1)[nH]c1ccccc12
inactive

Item: CCCCC1C(=O)N(c2ccccc2)N(c2ccccc2)C1=O
inactive

Item: C=CC(=O)OCCCCCCOC(=O)C=C
active

Item: C=CCCCCCCCCC=O
inactive

Item: CC(C)c1cccc(C(C)C)c1N
inactive

---

# Read-out: Interferon-gamma inducible Protein 10 (IP10), CXCL10 (gene 3627)
# Protocol Description: BSK_hDFCGF_IP10: BioMAP Diversity Plus: hDFCGF Assay for Interferon-gamma inducible Protein 10 (IP10) Biomarker Activity (AID 2283053)
# Setup Conditions: primary human foreskin fibroblasts; actives raise or lower the signal
The source made the active and inactive calls. How the source made its calls: active means hit-call score of the fitted dose curve at least 0.9, where 1 is the maximum; inactive means score below 0.9.
Allowed answers: active, inactive

Take a look at these entries with their results.
CC/C=C\CCOC(=O)c1ccccc1O active
CC=C(C)C(C)=O inactive
O=C(O)C(F)(F)C(F)(F)C(F)(F)C(F)(F)C(=O)O inactive

Now for another entry.
What did the test return for C=CC(=O)NCOCCCC ?
inactive

---

# Read-out: Actin alpha 1 (ACTA1), ACTA1 (gene 58)
# Protocol Description: BSK_MyoF_ACTA1: BioMAP Diversity Plus: MyoF Assay for Actin alpha 1 (ACTA1) Biomarker Activity (AID 2284244)
# Setup Conditions: primary human lung fibroblasts
The source made the active and inactive calls. The calls were made as follows: active = hit-call score of the fitted dose curve at least 0.9, where 1 is the maximum; inactive = score below 0.9.
Allowed answers: 1 (yes) for active, 0 (no) for inactive

Compound	Answer Label
CC(C)c1cccc(C(C)C)c1N	0 (no)
CCCCCCCCC(CO)CCCCCC (stereo unspecified)	0 (no)
CC(C)CCCCCOC(=O)CS	0 (no)
Fc1ccc(Br)cc1	0 (no)
CCCCCCCCCCCC(C)=O	0 (no)

Now for another entry.
What did the test return for CCOC(=O)C1=NOC(c2ccccc2)(c2ccccc2)C1 ?
0 (no)

---

# Read-out: Tumor necrosis factor (Homo sapiens)
# Protocol Description: BSK_BT_xTNFa: BioMAP Diversity Plus: BT Assay for Tumor necrosis factor alpha (TNF-alpha) Biomarker Activity (AID 2284230)
# Setup Conditions: primary human B cells with PBMC
# Protocol: BSK_BT is a cell-based, multiplexed-readout assay that uses B cell and peripheral blood mononuclear cells, a human vascular primary cell co-culture, with measurements taken at 24 hours after chemical dosing in a microplate: 96-well plate.BSK_BT_xTNFa is an assay component of the BSK_BT assay. […] Using a type of cytokine quantitation reporter, gain or loss-of-signal activity can be used to understand protein changes. […]
Calls of active or inactive are those of the source. The calls were made as follows: active = hit-call score of the fitted dose curve at least 0.9, where 1 is the maximum; inactive = score below 0.9.
Allowed answers: active, inactive

Take a look at these entries with their results.
CCCCCCCCCCCC(C)=O inactive
Cc1c(O)cccc1O inactive
CCOC(=O)C1=NOC(c2ccccc2)(c2ccccc2)C1 inactive
O=C1CCCCCCCCCCC1 inactive

What did the test return for C=C(C)C(=O)OCCCCCCCCCCCC ?
inactive

Item: CCNc1nc(NC(C)(C)C)nc(OC)n1
inactive

Item: Oc1ccc(/C=C/c2cc(O)cc(O)c2)cc1
active

Item: C=CC(=O)OCCCCCCCC(C)C
inactive
